test system: Escherichia coli TOP10; assay: shrunken log2 fold change of peptide-encoding DNA abundance (4.5 h post-induction vs induction); higher = less antimicrobial activity (less host growth inhibition); conditions: time post-induction: 4.5 h; library: site-saturation at positions 5, 18, 19, 20;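 also: peptides expressed intracellularly from a pBAD plasmid library in pooled LB shake-flask culture, induced with 0.3% L-arabinose, DNA abundance read by NGS, three biological replicates, DESeq2 with apeglm shrinkage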
property-label: shrunken log2 fold change
Numbers only.

Some sequences with known shrunken log2 fold change results, for comparison:
Fill in: shrunken log2 fold change of RRIRMRPPRLPRPRPRPCSIPRP is ___
-0.0306

Fill in: shrunken log2 fold change of RRIRSRPPRLPRPRPRPQNIPRP is ___
-0.657

Fill in: shrunken log2 fold change of RRIRARPPRLPRPRPRPMMMPRP is ___
0.246

Fill in: shrunken log2 fold change of RRIRGRPPRLPRPRPRPEFAPRP is ___
1.22

Fill in: shrunken log2 fold change of RRIRDRPPRLPRPRPRPCPFPRP is ___
-0.0587

Fill in: shrunken log2 fold change of RRIRPRPPRLPRPRPRPAVQPRP is ___
0.168

Fill in: shrunken log2 fold change of RRIRARPPRLPRPRPRPDATPRP is ___
1.6

Please look at the following sequence next.
Fill in: shrunken log2 fold change of RRIRRRPPRLPRPRPRPCYGPRP is ___
-0.214
